Values were extracted from ChEMBL document CHEMBL3045921.

Tested on: Tetranychus urticae
Assay: Acaricidal activity against Tetranychus urticae (two-spotted spider mite) in kidney bean leaf assessed as mortality at 500 ppm at 25 degC measured after 5 days
Assay type: functional
Details: 120 h
PROPERTY: mortality at 500 ppm
Please report the result as a number followed by the unit.

Some molecules with known mortality at 500 ppm results, for comparison:
MOLECULE	TGT	mortality at 500 ppm
CCCc1nn(C)c(C(=O)NCc2ccc(C(C)(C)C)cc2)c1Cl	Tetranychus urticae	100%
CC(C)c1nn(C)c(C(=O)NCc2ccc(C(C)(C)C)cc2)c1Cl	Tetranychus urticae	100%
CCc1nn(C)c(C(=O)NCc2ccc(CC(C)C)cc2)c1Cl	Tetranychus urticae	100%
CCc1nn(C)c(C(=O)NCc2ccccc2)c1Cl	Tetranychus urticae	0%
CCc1nn(C)c(C(=O)NCc2ccc(OC)cc2)c1Cl	Tetranychus urticae	0%

# returns recorded mortality at 500 ppm (system: Tetranychus urticae) for "Cn1nc(C2CC2)c(Cl)c1C(=O)NCc1ccc(C(C)(C)C)cc1"
30%

What do you have for CCc1nn(C)c(C(=O)NCc2ccc([S+](C)[O-])cc2)c1Cl (stereo unspecified) ?
0%

What do you have for "Cc1nn(Cc2ccccc2)c(C(=O)NCc2ccc(C(C)(C)C)cc2)c1Cl" ?
0%

What do you have for "Cc1nn(C)c(C(=O)NCc2ccc(C(C)(C)C)cc2)c1C#N" ?
0%

What do you have for "CCCCCc1ccc(CNC(=O)c2c(Cl)c(CC)nn2C)cc1" ?
100%

What do you have for "CCc1nn(C)c(C(=O)NCc2ccc(C#N)cc2)c1Cl" ?
0%

What do you have for "CCOc1ccc(CNC(=O)c2c(Cl)c(CC)nn2C)cc1" ?
0%

What do you have for "Cc1nn(C)c(C(=S)NCc2ccc(C(C)(C)C)cc2)c1Cl" ?
80%

What do you have for "CCOCc1ccc(CNC(=O)c2c(Cl)c(CC)nn2C)cc1" ?
100%

What do you have for "CCCCc1nn(C)c(C(=O)NCc2ccc(C(C)(C)C)cc2)c1Cl" ?
0%

What do you have for "Cc1nn(C)c(C(=O)Nc2ccc(C(C)(C)C)cc2)c1Br" ?
0%

What do you have for "CC(=O)Nc1c(C)nn(C)c1C(=O)NCc1ccc(C(C)(C)C)cc1" ?
0%

---

Listed here: items and their measured mortality at 500 ppm.
Test system: Tetranychus urticae
Assay: Acaricidal activity against Tetranychus urticae (two-spotted spider mite) in kidney bean leaf assessed as mortality at 500 ppm at 25 degC measured after 5 days
Assay type: functional
Details: 120 h
Give a bare numeral; the unit % is implied.

COMPOUND	UNIT_STRING	mortality at 500 ppm
COc1c(C)nn(C)c1C(=O)NCc1ccc(C(C)(C)C)cc1	%	100

Any idea what mortality at 500 ppm was measured for "CCc1nn(C)c(C(=O)NCc2ccc(SC)cc2)c1Cl" ?
100

What do you have for "Cc1nn(C)c(C(=O)NCc2ccc(C(C)(C)C)cc2)c1C" ?
100

What do you have for "CCc1nn(C)c(C(=O)NCc2ccc([N+](=O)[O-])cc2)c1Cl" ?
0

What do you have for "Cc1nn(C)c(C(=O)NCc2ccc(C(C)(C)C)cc2)c1Cl" ?
100

What do you have for "Cn1nc(-c2ccccc2)c(Cl)c1C(=O)NCc1ccc(C(C)(C)C)cc1" ?
0

What do you have for "Cc1nn(C)c(C(=O)NC(C)(C)c2ccccc2)c1Br" ?
0

What do you have for "Cc1nn(C)c(C(=O)OCc2ccc(C(C)(C)C)cc2)c1Br" ?
0

What do you have for "CCc1nn(C)c(C(=O)NCc2ccc(C(C)C)cc2)c1Cl" ?
100
